- systemName: T1, rhFGFR2IIIb-Fc (recombinant human FGFR2IIIb-Fc) (human, UniProt P21802-3 22-378, limits assumed)
- T1 construct: Coated on the ELISA plate at 2 ug/mL; not shown: Fc part
- T1 sequence (P21802 other isoform, or with tags, fused parts or gaps limits assumed): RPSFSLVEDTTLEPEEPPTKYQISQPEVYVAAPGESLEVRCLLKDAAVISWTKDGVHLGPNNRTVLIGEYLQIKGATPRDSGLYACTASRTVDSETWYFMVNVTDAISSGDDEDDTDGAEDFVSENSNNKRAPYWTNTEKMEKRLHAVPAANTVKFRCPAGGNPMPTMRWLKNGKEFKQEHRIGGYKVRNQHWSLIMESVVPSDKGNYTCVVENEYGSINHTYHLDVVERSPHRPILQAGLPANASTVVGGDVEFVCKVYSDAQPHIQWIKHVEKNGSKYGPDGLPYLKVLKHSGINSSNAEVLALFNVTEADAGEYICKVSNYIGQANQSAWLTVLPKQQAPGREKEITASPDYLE
- protocolSummary: ELISA, coated rhFGFR2IIIb-Fc, anti-Fab HRP
experimentalEndpoint: pEC50
Please report pEC50 as the negative decimal logarithm of the molar concentration, giving only the number.

- binder: "FWB1911 (antibody, V domains shown) VH: QVQLVQSGAEVKKPGSSVKVSCKASGYIFTSYNVHWVRQAPGQGLEWIGSIYPDNGDSSYNQNYKGRATITADKSTSTAYMELSSLRSEDTAVYYCARGDFAYWGQGTLVTVSS VL: DIQMTQSPSSLSASVGDRVTITCKASNGVSNDIAWYQQKPGKAPKLLIYSASYRYSGVPSRFSGSGSGTDFTFTISSLQPEDIATYYCQQHSTTPYSFGQGTKLEIK"
  pEC50: 9.16
- binder: "FWB1907 (antibody, V domains shown) VH: QVQLVQSGAEVKKPGSSVKVSCKASGYIFTSYNVNWVRQAPGQGLEWIGSIYPDNGDSSYNNNYKGRATITADKSTSTAYMELSSLRSEDTAVYYCARGDFAYWGQGTLVTVSS VL: DIQMTQSPSSLSASVGDRVTITCRASNGISNDIAWYQQKPGKAPKLLIYSASYRYSGVPSRFSGSGSGTDFTFTISSLQPEDIATYYCQQHSTTPYTFGQGTKLEIK"
  pEC50: 8.98

Short answer for FWB1905 (antibody, V domains shown) VH: QVQLVQSGAEVKKPGSSVKVSCKASGYIFTSYNVHWVRQAPGQGLEWIGSIYPDNGDSSYNQNYKGRATITADKSTSTAYMELSSLRSEDTAVYYCARGDFAYWGQGTLVTVSS VL: DIQMTQSPSSLSASVGDRVTITCKASNGVSNDIAWYQQKPGKAPKLLIYSASYRYSGVPSRFSGSGSGTDFTFTISSLQPEDIATYYCQQHSTTPYTFGQGTKLEIK : pEC50 was 9.53

For record FWB1918 (antibody, V domains shown) VH: QVQLVQSGAEVKKPGSSVKVSCKASGYIFTSYNVHWVRQAPGQGLEWIGSIYPDNGDSSYNQNFRGRATITADKSTSTAYMELSSLRSEDTAVYYCARGDFAYWGQGTLVTVSS VL: DIQMTQSPSSLSASVGDRVTITCKGSNGISNDIAWYQQKPGKAPKLLIYSASYRYSGVPSRFSGSGSGTDFTFTISSLQPEDIATYYCQQHSTTPYTFGQGTKLEIK the listed pEC50 is 9.20

Note to self: pEC50 recorded for FWB1919 (antibody, V domains shown) VH: QVQLVQSGAEVKKPGSSVKVSCKASGYIFTSYNVHWVRQAPGQGLEWIGSIYPDNGDSSYNQNYRGRATITADKSTSTAYMELSSLRSEDTAVYYCARGDFAYWGQGTLVTVSS VL: DIQMTQSPSSLSASVGDRVTITCRGSNGISNDIAWYQQKPGKAPKLLIYSASYRYSGVPSRFSGSGSGTDFTFTISSLQPEDIATYYCQQHSTTPYTFGQGTKLEIK was 9.06
